biological target: UniProt:P09917; assay: Cell-free activity assay of human recombinant 5-LO; type: biochemical; design: made in house; host or cells: E. coli (BL21), plasmid pT3-5-LO; details: 1 mM DTT, no Triton X100, n=3; read-out: IC50 (without Triton X100), inhibition of 5-LO
ASSAY_METRIC: pIC50
One number for each entry, as −log10 of the molar value.

Record `CC1(C)CCC2=C(O1)c1ccccc1C(=O)C2=O` , field pIC50: 6.92

###

target: 5-LO (Homo sapiens, UniProt P09917); test: 5-LO activity in neutrophil homogenates; assay type: biochemical; set-up: endogenous in cells; host or cells: neutrophils isolated from peripheral blood of healthy adult volunteers; intact or sonicated homogenates; conditions: absence of DTT, n=3; read-out: IC50 (without DTT), 5-LO activity in neutrophil homogenates
ASSAY_METRIC: pIC50
One number for each entry, as −log10 of the molar value.

Record CC1(C)CCC2=C(O1)c1ccccc1C(=O)C2=O [Compound 1] , field pIC50: 5.28

###

Biological target: 5-LO (Homo sapiens, UniProt P09917)
Sequence (P09917 1-674): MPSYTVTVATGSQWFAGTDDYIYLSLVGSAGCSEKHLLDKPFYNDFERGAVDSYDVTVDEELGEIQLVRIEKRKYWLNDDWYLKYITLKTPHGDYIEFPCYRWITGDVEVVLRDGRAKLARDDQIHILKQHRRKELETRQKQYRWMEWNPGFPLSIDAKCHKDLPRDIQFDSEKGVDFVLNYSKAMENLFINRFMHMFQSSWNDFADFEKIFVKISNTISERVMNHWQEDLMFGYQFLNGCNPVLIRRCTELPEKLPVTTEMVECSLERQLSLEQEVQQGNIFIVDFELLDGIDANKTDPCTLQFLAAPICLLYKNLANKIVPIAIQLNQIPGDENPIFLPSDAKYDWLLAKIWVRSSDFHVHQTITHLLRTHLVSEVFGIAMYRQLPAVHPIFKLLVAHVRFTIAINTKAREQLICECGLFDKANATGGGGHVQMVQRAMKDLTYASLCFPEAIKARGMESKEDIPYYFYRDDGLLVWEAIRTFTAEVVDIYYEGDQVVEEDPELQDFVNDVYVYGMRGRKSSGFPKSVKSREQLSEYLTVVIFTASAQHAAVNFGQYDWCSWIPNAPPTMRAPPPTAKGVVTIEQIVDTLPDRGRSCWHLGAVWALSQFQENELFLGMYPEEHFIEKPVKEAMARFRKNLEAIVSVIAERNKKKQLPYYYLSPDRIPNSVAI
Test: 5-LO product formation in intact human neutrophils
Type: cell-based
Parameters: endogenous in cells; host or cells: neutrophils isolated from peripheral blood of healthy adult volunteers; intact or sonicated homogenates
Details: without DTT, A23187 plus arachidonic acid, n=3; read-out: IC50 (5-LO), intact human neutrophils
ASSAY_METRIC: IC50 (µM)
Give bare numbers, in µM.

# lookup: `CC1(C)CCC2=C(O1)c1ccccc1C(=O)C2=O` on 5-LO (Homo sapiens, UniProt P09917), IC50 = 8.6

###

Target: 5-LO (Homo sapiens)
Sequence (P09917 1-674): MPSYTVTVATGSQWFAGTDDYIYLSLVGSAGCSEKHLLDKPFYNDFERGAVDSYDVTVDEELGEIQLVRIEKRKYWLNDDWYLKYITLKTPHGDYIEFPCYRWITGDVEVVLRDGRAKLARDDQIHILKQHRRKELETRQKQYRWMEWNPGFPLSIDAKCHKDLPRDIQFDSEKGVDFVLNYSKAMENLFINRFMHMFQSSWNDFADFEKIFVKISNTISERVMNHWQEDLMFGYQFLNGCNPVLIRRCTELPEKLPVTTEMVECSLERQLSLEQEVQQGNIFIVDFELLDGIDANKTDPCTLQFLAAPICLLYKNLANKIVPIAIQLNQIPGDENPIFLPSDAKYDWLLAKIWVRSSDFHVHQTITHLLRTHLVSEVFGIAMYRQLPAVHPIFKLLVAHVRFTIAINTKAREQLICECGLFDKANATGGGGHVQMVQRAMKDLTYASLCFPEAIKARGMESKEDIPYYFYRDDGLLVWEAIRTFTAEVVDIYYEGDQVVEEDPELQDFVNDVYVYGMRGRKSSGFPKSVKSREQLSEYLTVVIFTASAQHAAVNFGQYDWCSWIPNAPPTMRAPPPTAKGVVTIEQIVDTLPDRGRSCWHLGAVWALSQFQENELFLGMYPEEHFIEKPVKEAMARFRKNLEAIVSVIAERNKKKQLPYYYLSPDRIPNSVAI
Experiment: 5-LO activity in neutrophil homogenates
Type: biochemical
Design: endogenous in cells; host or cells: neutrophils isolated from peripheral blood of healthy adult volunteers; intact or sonicated homogenates
Settings: 1 mM DTT, n=3; read-out: IC50 (with DTT), 5-LO activity in neutrophil homogenates
ASSAY_METRIC: IC50
Report the figure along with its unit, number first.

Record `CC1(C)CCC2=C(O1)c1ccccc1C(=O)C2=O` , field IC50: 90 nM
